src = patent US20210079074A1

# TARGET: T1, recombinant MS4A4A soluble polypeptide JS1
# T1 construct: also called JS1.His; loop grafted antigen
# MEASUREMENT DESCRIPTION: ELISA, 1 ug/ml antibody
# maps each entry to its OD450

# annotated cases, reported OD450 shown
{"BINDER": "anti-MS4A4A antibody 4A-301 (antibody, human IgG1, V domains shown, human IgG1/kappa) VH: QVQLVQSGAEVKKPGASVKVSCKASGYTFTNYWMQWVRQAPGQGLEWMGATHPGHGDTRYAQKFQGRVTMTRDTSTSTVYMELSSLRSEDTAVYYCAREEVYYGFRSYWYFDVWGRGTLVTVSS VL: DIVMTQSPDSLAVSLGERATINCRASESVDNYGVSFMNWYQQKPGQPPKLLIYGASNQGSGVPDRFSGSGSGTDFTLTISSLQAEDVAVYYCQQSKEVPPTFGGGTKVEIK", "OD450": 0.116}
{"BINDER": "anti-MS4A4A antibody 4A-304 (antibody, human IgG1, V domains shown, human IgG1/kappa) VH: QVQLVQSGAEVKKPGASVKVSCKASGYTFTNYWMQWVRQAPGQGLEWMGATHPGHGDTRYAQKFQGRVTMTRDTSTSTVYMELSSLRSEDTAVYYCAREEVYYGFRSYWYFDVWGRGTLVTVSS VL: EIVLTQSPGTLSLSPGERATLSCRASESVDNYGVSFMNWYQQKPGQAPRLLIYGASNQGSGIPDRFSGSGSGTDFTLTISRLEPEDFAVYYCQQSKEVPPTFGGGTKVEIK", "OD450": 0.11}
{"BINDER": "anti-MS4A4A antibody 4A-343 (antibody, human IgG1, V domains shown, humanized 4A-21; human IgG1/kappa) VH: QIQLVQSGAEVKKPGASVKVSCKASGYIFTSYGLSWVRQAPGQGLEWMGWINTYSGVPTYAQKFQGRVTMTLDTSTSTTYMELSSLRSEDTAVYYCARSLVDYWGQGTLVTVSS VL: DVVMTQTPLSLSVTPGQPASISCKSSQSLLYSDGKTYLSWYLQKPGQPPQRLIYLVSKLDSGVPDRFSGSGSGTDFTLKISRVEAEDVGVYYCWQGIDFHQTFGGGTKVEIK", "OD450": 1.37}
{"BINDER": "anti-MS4A4A antibody 4A-347 (antibody, human IgG1, V domains shown, humanized 4A-21; human IgG1/kappa) VH: QVQLVQSGAEVKKPGASVKVSCKASGYIFTSYGLSWVRQAPGQRLEWMGWINTYSGVPTYSQKFQGRVTITLDTSASTTYMELSSLRSEDTAVYYCARSLVDYWGQGTLVTVSS VL: DIVMTQTPLSLSVTPGQPASISCKSSQSLLYSDGKTYLSWYLQKPGQPPQLLIYLVSKLDSGVPDRFSGSGSGTDFTLKISRVEAEDVGVYYCWQGIDFHQTFGGGTKVEIK", "OD450": 0.141}
{"BINDER": "anti-MS4A4A antibody 4A-334 (antibody, human IgG1, V domains shown, humanized 4A-21; human IgG1/kappa) VH: QVQLVQSGSELKKPGASVKVSCKASGYIFTSYGLSWVRQAPGQGLEWMGWINTYSGVPTYAQGFTGRFVFSLDTSVSTAYLQISSLKAEDTAVYYCARSLVDYWGQGTLVTVSS VL: DIVMTQTPLSSPVTLGQPASISCKSSQSLLYSDGKTYLSWLQQRPGQPPRLLIYLVSKLDSGVPDRFSGSGAGTDFTLKISRVEAEDVGVYYCWQGIDFHQTFGGGTKVEIK", "OD450": 1.53}

Please fill in: OD450 reported for anti-MS4A4A antibody 4A-308 (antibody, human IgG1, V domains shown, human IgG1/kappa) VH: QVQLVQSGAEVKKPGASVKVSCKASGYTFTNYWMQWVRQAPGQGLEWMGATHPGHGDTRYAQKFQGRVTMTADKSTSTAYMELSSLRSEDTAVYYCAREEVYYGFRSYWYFDVWGRGTLVTVSS VL: DIVMTQSPDSLAVSLGERATINCRASESVDNYGVSFMNWYQQKPGQPPKLLIYGASNQGSGVPDRFSGSGSGTDFTLTISSLQAEDVAVYYCQQSKEVPPTFGGGTKVEIK = 0.12

Please fill in: OD450 reported for anti-MS4A4A antibody 4A-340 (antibody, human IgG1, V domains shown, humanized 4A-21; human IgG1/kappa) VH: QVQLVQSGAEVKKPGASVKVSCKASGYIFTSYGLSWVRQAPGQRLEWMGWINTYSGVPTYSQKFQGRVTITLDTSASTTYMELSSLRSEDTAVYYCARSLVDYWGQGTLVTVSS VL: DVVMTQTPLSLSVTPGQPASISCKSSQSLLYSDGKTYLSWYLQKPGQPPQLLIYLVSKLDSGVPDRFSGSGSGTDFTLKISRVEAEDVGVYYCWQGIDFHQTFGGGTKVEIK = 0.146

Please fill in: OD450 reported for anti-MS4A4A antibody 4A-333 (antibody, human IgG1, V domains shown, humanized 4A-21; human IgG1/kappa) VH: QVQLVQSGSELKKPGASVKVSCKASGYIFTSYGLSWVRQAPGQGLEWMGWINTYSGVPTYAQGFTGRFVFSLDTSVSTTYLQISSLKAEDTAVYYCARSLVDYWGQGTLVTVSS VL: DVVMTQSPLSLPVTLGQPASISCKSSQSLLYSDGKTYLSWFQQRPGQSPRRLIYLVSKLDSGVPDRFSGSGSGTDFTLKISRVEAEDVGVYYCWQGIDFHQTFGGGTKVEIK = 1.79

Please fill in: OD450 reported for anti-MS4A4A antibody 4A-336 (antibody, human IgG1, V domains shown, humanized 4A-21; human IgG1/kappa) VH: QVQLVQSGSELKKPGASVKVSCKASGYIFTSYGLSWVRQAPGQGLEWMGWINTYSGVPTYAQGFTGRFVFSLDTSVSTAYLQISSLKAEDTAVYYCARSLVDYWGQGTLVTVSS VL: DVVMTQTPLSSPVTLGQPASISCKSSQSLLYSDGKTYLSWLQQRPGQPPRRLIYLVSKLDSGVPDRFSGSGAGTDFTLKISRVEAEDVGVYYCWQGIDFHQTFGGGTKVEIK = 1.7

Please fill in: OD450 reported for anti-MS4A4A antibody 4A-303 (antibody, human IgG1, V domains shown, human IgG1/kappa) VH: EVQLVQSGAEVKKPGESLKISCKGSGYTFTNYWMQWVRQMPGKGLEWMGATHPGHGDTRYSPSFQGQVTISADKSISTAYLQWSSLKASDTAMYYCAREEVYYGFRSYWYFDVWGRGTLVTVSS VL: DIVMTQSPDSLAVSLGERATINCRASESVDNYGVSFMNWYQQKPGQPPKLLIYGASNQGSGVPDRFSGSGSGTDFTLTISSLQAEDVAVYYCQQSKEVPPTFGGGTKVEIK = 0.121
